Entry source: paper PMC9827630

System: Candida albicans ATCC 90028
Assay: Antifungal growth inhibition (CO-ADD)
Assay type: cell-based
Details: sigmoidal dose-response fit of growth inhibition, absorbance at 530 nm
Where no end group is shown, it is not given here.
observedProperty: MIC

Solved entries (count: 5):
[[record]]
substance = "FWLKGGRGDG-NH2 [Rm53a/b]"
observedproperty = "MIC"
observedmeasurement = ">29 µM"

[[record]]
substance = "RNVPRWFTPRL-NH2 [Rm52d]"
observedproperty = "MIC"
observedmeasurement = ">22 µM"

[[record]]
substance = "ALWDTIKKWVAKVLPLVKNALK-NH2 [Rm20a]"
observedproperty = "MIC"
observedmeasurement = ">13 µM"

[[record]]
substance = "ILPALIPVFASLLPWAIKKF-NH2 [Rm55b]"
observedproperty = "MIC"
observedmeasurement = ">14 µM"

[[record]]
substance = "FIGGLIKFIAKFVPKILPFFQKKN-OH [Rm34a]"
observedproperty = "MIC"
observedmeasurement = "0.72 µM"


Provide each entry's MIC from the list below.
1. FLPFLIPVIASLVSSLK-NH2 [Rm55a]
2. VAPIVAMAGLGLFAAAVAGLDWLSKKV-NH2 [Rm1a]

// result
>17 µM
>12 µM

====

Test system: Escherichia coli ATCC 25922
Experiment: Antimicrobial growth inhibition (CO-ADD)
Type: cell-based
Settings: percentage growth inhibition, absorbance at 600 nm; mean ± SEM
Where no end group is shown, it is not given here.
Would you kindly list Max response ± SEM for each of these substances?
One number for each entry.

Solved entries (count: 5):
[[record]]
substance = "ALWDTIKKWVAKVLPLVKNALK-NH2 [Rm20a]"
observedmeasurement = 100

[[record]]
substance = "LWPFLISLIPTVIDLARNL-NH2 [Rm54a]"
observedmeasurement = 10

[[record]]
substance = "FIGGLIKFIAKFVPKILPFFQKKN-OH [Rm34a]"
observedmeasurement = 98

[[record]]
substance = "VAPIVAMAGLGLFAAAVAGLDWLSKKV-NH2 [Rm1a]"
observedmeasurement = 9

[[record]]
substance = "RNVPRWFTPRL-NH2 [Rm52d]"
observedmeasurement = 1


Provide each entry's Max response ± SEM from the list below.
1. FLPFLIPVIASLVSSLK-NH2 [Rm55a]
2. ILPALIPVFASLLPWAIKKF-NH2 [Rm55b]

// result
4
11

====

Would you kindly list Max response ± SEM for each of these substances?
Test system: Cryptococcus neoformans var. grubii H99; ATCC 208821
Experiment: Antifungal growth inhibition (CO-ADD)
Type: cell-based
Settings: percentage growth inhibition, difference in absorbance 600 and 570 nm after resazurin, 35°C 2 h; mean ± SEM
Where no end group is shown, it is not given here.
Numbers only.

Solved entries (count: 5):
[[record]]
substance = "RNVPRWFTPRL-NH2 [Rm52d]"
measuredtarget = "Cryptococcus neoformans var. grubii H99; ATCC 208821"
observedmeasurement = -13

[[record]]
substance = "FLPFLIPVIASLVSSLK-NH2 [Rm55a]"
measuredtarget = "Cryptococcus neoformans var. grubii H99; ATCC 208821"
observedmeasurement = -10

[[record]]
substance = "FIGGLIKFIAKFVPKILPFFQKKN-OH [Rm34a]"
measuredtarget = "Cryptococcus neoformans var. grubii H99; ATCC 208821"
observedmeasurement = 101

[[record]]
substance = "ILPALIPVFASLLPWAIKKF-NH2 [Rm55b]"
measuredtarget = "Cryptococcus neoformans var. grubii H99; ATCC 208821"
observedmeasurement = 86

[[record]]
substance = "ALWDTIKKWVAKVLPLVKNALK-NH2 [Rm20a]"
measuredtarget = "Cryptococcus neoformans var. grubii H99; ATCC 208821"
observedmeasurement = 88


Provide each entry's Max response ± SEM from the list below.
1. VAPIVAMAGLGLFAAAVAGLDWLSKKV-NH2 [Rm1a]
2. LWPFLISLIPTVIDLARNL-NH2 [Rm54a]

// result
[36, -15]
